Data provenance: paper PMC6028563

# measured on: human A2B AR (Homo sapiens, UniProt P29275)
# Construct: expressed in transfected cells; host or cells: CHO cells
# test method notes: Radioligand binding assay at human A2B AR vs. [^3H]PSB-603
# measurement context: at 1,000 nM, read-out: % inhibition of radioligand binding at indicated concentration, A2B vs. [^3H]PSB-603
# inhibition at 1 µM per record follows
// unit must come after the numeric part

1) CCn1c(=O)c2c(nc3n2CCN(Cc2cc(F)c(F)c(F)c2)C3)n(CC)c1=O [Compound 15r]
23%

Query for human A2B AR (Homo sapiens, UniProt P29275): what inhibition at 1 µM does the record show for CCn1c(=O)c2c(nc3n2CCN(Cc2cccc(C(F)(F)F)c2F)C3)n(C)c1=O [Compound 14l] ?
8%

What inhibition at 1 µM appears in the records for this molecule with human A2B AR (Homo sapiens, UniProt P29275)? C#CCn1c(=O)c2c(nc3n2CCN(Cc2ccccc2OC)C3)n(CC)c1=O [Compound 20f]
18%

====

# measured on: human A2B AR (Homo sapiens, UniProt P29275)
# Construct: expressed in transfected cells; host or cells: CHO cells
# Sequence (P29275 1-332): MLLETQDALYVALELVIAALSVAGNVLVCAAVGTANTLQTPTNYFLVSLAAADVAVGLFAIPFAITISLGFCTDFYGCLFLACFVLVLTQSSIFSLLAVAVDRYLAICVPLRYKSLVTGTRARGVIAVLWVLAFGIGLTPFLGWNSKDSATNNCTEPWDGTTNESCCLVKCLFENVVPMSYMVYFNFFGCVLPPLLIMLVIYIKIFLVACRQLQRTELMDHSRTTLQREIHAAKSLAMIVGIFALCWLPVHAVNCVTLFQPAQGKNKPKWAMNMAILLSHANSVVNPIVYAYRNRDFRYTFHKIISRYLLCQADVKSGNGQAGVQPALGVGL
# test method notes: Radioligand binding assay at human A2B AR vs. [^3H]PSB-603
# measurement context: at 1,000 nM, read-out: % inhibition of radioligand binding at indicated concentration, A2B vs. [^3H]PSB-603
We begin with a simple list: items and their reported inhibition at 1 µM.
Report the figure in % without appending any unit label.

Example results:
1. CCn1c(=O)n(C)c(=O)c2c1nc1n2CCN(Cc2cc(Cl)cc(Cl)c2)C1 [Compound 16b]
5
2. C#CCn1c(=O)c2c(nc3n2CCN(c2ccccc2F)C3)n(CC)c1=O [Compound 20a]
8
3. CCn1c(=O)c2c(nc3n2CCN(Cc2cccc(F)c2)C3)n(CC)c1=O [Compound 15b]
9
4. CCn1c(=O)c2c(nc3n2CCN(Cc2cc(C(F)(F)F)cc(C(F)(F)F)c2)C3)n(CC)c1=O [Compound 15q]
7
5. C#CCn1c(=O)c2c(nc3n2CCN(CCc2ccc(OC)c(OC)c2)C3)n(CC)c1=O [Compound 20l]
9

--- query ---
Hello, I am looking for reported inhibition at 1 µM with human A2B AR (Homo sapiens, UniProt P29275) for C#CCn1c(=O)c2c(nc3n2CCN(CCc2ccccc2)C3)n(CC)c1=O [Compound 20h] . Could you help?
16

====

# measured on: rat A2A AR (Rattus norvegicus)
# Construct: A2A ARs of rat brain striatal membrane preparations; from tissue; host or cells: rat brain striatum membranes
# Sequence (P30543 whole entry): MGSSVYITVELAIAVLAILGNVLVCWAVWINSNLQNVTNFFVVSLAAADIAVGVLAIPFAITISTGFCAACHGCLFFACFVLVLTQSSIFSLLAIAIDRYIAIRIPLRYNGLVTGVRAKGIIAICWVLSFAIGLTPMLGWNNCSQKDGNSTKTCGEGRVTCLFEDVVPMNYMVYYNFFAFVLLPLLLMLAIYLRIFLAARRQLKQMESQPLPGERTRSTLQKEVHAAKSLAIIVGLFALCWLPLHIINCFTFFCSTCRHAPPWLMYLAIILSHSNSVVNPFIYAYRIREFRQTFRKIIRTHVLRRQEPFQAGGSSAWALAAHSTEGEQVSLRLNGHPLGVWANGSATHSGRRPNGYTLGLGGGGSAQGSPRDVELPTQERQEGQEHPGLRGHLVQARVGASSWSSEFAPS
# test method notes: Radioligand binding assay at rat A2A AR (rat brain striatum) vs. [^3H]MSX-2
# measurement context: rat (r); rat brain striatum; n = 3; read-out: Ki ± SEM, A2A vs. [^3H]MSX-2
# Method: Membrane preparations and radioligand binding assays at rat A1 (rat brain cortex) and rat A2A ARs (rat brain striatum) were performed as previously described (Ozola et al., [2003]; Alnouri et al., [2015]). […] The synthesized tetrahydropyrazino[2,1-f ]purinediones 13–20 were evaluated in radioligand binding assays for their affinity to A1 ARs of rat brain cortical membrane and to A2A ARs of rat brain striatal membrane preparations. […]
Documented Ki across a set of molecules

1. CCn1c(=O)c2c(nc3n2CCN(Cc2cccc(C(F)(F)F)c2)C3)n(CC)c1=O [Compound 15g]
1030 nM
2. Cn1c(=O)[nH]c(=O)c2c1nc1n2CCN(CCc2cccc(Cl)c2)C1 [Compound 13c]
> 1000 nM
3. Cn1c(=O)[nH]c(=O)c2c1nc1n2CCN(CCc2ccc(Cl)cc2Cl)C1 [Compound 13f]
> 1000 nM
4. CCn1c(=O)c2c(nc3n2CCN(Cc2cc(C(F)(F)F)ccc2Cl)C3)n(CC)c1=O [Compound 15n]
871 nM
5. C#CCn1c(=O)c2c(nc3n2CCN(CCc2ccc(OC)c(OC)c2)C3)n(CC)c1=O [Compound 20l]
7400 nM

Kindly review the next molecule as well.
Form field: reported Ki of Cn1c(=O)[nH]c(=O)c2c1nc1n2CCN(Cc2ccccc2Br)C1 [Compound 13a]
> 1000 nM
